EXPERIMENTAL TARGET: histamine H4 receptor (Homo sapiens, UniProt Q9H3N8)
Sequence (Q9H3N8 whole entry): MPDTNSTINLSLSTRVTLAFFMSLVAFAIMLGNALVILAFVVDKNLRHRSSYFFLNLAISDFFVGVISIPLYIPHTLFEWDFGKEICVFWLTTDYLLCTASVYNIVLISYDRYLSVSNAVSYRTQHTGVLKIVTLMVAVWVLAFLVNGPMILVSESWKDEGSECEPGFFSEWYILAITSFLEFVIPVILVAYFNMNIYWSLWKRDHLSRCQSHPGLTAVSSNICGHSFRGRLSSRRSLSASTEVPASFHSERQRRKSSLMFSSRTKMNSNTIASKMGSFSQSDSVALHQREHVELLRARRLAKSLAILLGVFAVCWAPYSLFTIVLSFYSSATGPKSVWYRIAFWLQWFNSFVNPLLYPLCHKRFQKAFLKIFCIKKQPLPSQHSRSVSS
pIC50: −log10 of the molar value.
Entry flag: Fulfilled if pIC50 reaches 7; Not fulfilled if it does not.

pIC50 >= 7 for CCC(=O)N1CCC(c2ccc3c(c2)CN(c2cc(N4CCN(C)CC4)nc(N)n2)C(C)C3)CC1 (centres unmarked) ?
Fulfilled

Again, but for CC1Cc2ccc(C3CCN(C(=O)N(C)C)CC3)cc2CN1c1cc(N2CCN(C)CC2)nc(N)n1 (centres unmarked) [Example 141]
Fulfilled

Again, but for CC1Cc2ccc(-c3cnn(C)c3)cc2CN1c1cc(N2CCCNCC2)nc(N)n1 (centres unmarked)
Fulfilled

Again, but for CC1Cc2ccc(C3CCN(S(C)(=O)=O)CC3)cc2CN1c1cc(N2CCN(C)CC2)nc(N)n1 (centres unmarked)
Fulfilled

Again, but for CC1Cc2ccc(-c3cnn(CCC#N)c3)cc2CN1c1cc(N2CCN(C)CC2)nc(N)n1 (single isomer, unassigned) [Example 96A]
Fulfilled

Again, but for CNC(=O)c1cc(-c2ccc3c(c2)CN(c2cc(N4CCN(C)CC4)nc(N)n2)C(C)C3)cn1C (single isomer, unassigned) [Example 87A]
Fulfilled

Again, but for CC1Cc2ccc(-c3ccn(CCO)n3)cc2CN1c1cc(N2CCN(C)CC2)nc(N)n1 (single isomer, unassigned) [Example 84A]
Fulfilled

Again, but for CC1Cc2ccc(-c3ccnc(C(=O)N4CC(C#N)C4)c3)cc2CN1c1cc(N2CCN(C)CC2)nc(N)n1 (single isomer, unassigned) [Example 63B]
Fulfilled

Again, but for `CN1CCN(c2cc(N3CCc4ccc(C(=O)N(C)C)cc4C3)nc(N)n2)CC1`
Not fulfilled

Again, but for `CN1CCN(c2cc(N3CCc4ccc(N5CCC(C#N)CC5)cc4C3)nc(N)n2)CC1`
Not fulfilled

Again, but for CNC(=O)c1ccc(-c2ccc3c(c2)CN(c2cc(N4CCN(C)CC4)nc(N)n2)C(CO)C3)cn1 (single isomer, unassigned) [Example 81B]
Fulfilled

Again, but for `CN1CCN(c2cc(N3CCc4ccc(C(=O)NC5CCCC5)cc4C3)nc(N)n2)CC1`
Not fulfilled

---

pIC50 data for histamine H4 receptor (Homo sapiens, UniProt Q9H3N8) follow.
The quantity pIC50 is defined as the negative base-10 logarithm of the molar concentration.

Consider the molecule CC(C#N)Cn1cc(-c2ccc3c(c2)CN(c2cc(N4CCN(C)CC4)nc(N)n2)C(C)C3)cn1 (single isomer, unassigned) and give its measured pIC50.
7.47

Again, but for CC1Cc2ccc(-c3ccn(CCC#N)n3)cc2CN1c1cc(N2CCN(C)CC2)nc(N)n1 (single isomer, unassigned) [Example 83A]
7.48

Again, but for CC1Cc2ccc(-c3ccc(C(=O)N4CC[C@H](F)C4)nc3)cc2CN1c1cc(N2CCN(C)CC2)nc(N)n1 (single isomer, unassigned) [Example 154A]
7.07

Again, but for CC1Cc2ccc(-c3ccnc(C(=O)N4CCCC4)c3)cc2CN1c1cc(N2CCN(C)CC2)nc(N)n1 (single isomer, unassigned) [Example 64B]
7.07

Again, but for CC1Cc2ccc(C3CCN(C(=O)CC4CCCC4)CC3)cc2CN1c1cc(N2CCN(C)CC2)nc(N)n1 (stereo not shown)
7.19

Again, but for CCn1ccc(-c2ccc3c(c2)CN(c2cc(N4CCN(C)CC4)nc(N)n2)C(C)C3)n1 (single isomer, unassigned) [Example 86A]
7.40

Again, but for CC1Cc2ccc(-c3cnn(CC4CCCO4)c3)cc2CN1c1cc(N2CCN(C)CC2)nc(N)n1 (single isomer, unassigned) [Example 99B]
6.76

Again, but for CC1Cc2ccc(-c3cnn(CCC(N)=O)c3)cc2CN1c1cc(N2CCN(C)CC2)nc(N)n1 (single isomer, unassigned)
7.47

Again, but for CC1Cc2ccc(-c3cncc(C(=O)N4CC(O)C4)c3)cc2CN1c1cc(N2CCN(C)CC2)nc(N)n1 (single isomer, unassigned)
7.00

Again, but for `CN1CCN(c2cc(N3CCc4ccc(-c5cnc(C#N)c(F)c5)cc4C3)nc(N)n2)CC1`
7.12

Again, but for CC1Cc2ccc(-c3cnn(CCC#N)c3)cc2CN1c1cc(N2CCN(C)CC2)nc(N)n1 (single isomer, unassigned) [Example 96B]
6.45

Again, but for CC1Cc2ccc(-c3ccn(C)n3)cc2CN1c1cc(N2CCN(C)CC2)nc(N)n1 (single isomer, unassigned) [Example 85B]
6.98

Again, but for CC1Cc2ccc(-c3cnn(C4CCOCC4)c3)cc2CN1c1cc(N2CCN(C)CC2)nc(N)n1 (single isomer, unassigned) [Example 95A]
7.46

---

Provide the recorded inhibition at 1 µM for the entries that follow.
EXPERIMENTAL TARGET: histamine H4 receptor (Homo sapiens, UniProt Q9H3N8)
Construct: expressed in transfected cells; host or cells: HEK293SFM cells (membrane preparation)
PROTOCOL DESCRIPTION: Inhibition of histamine H4 receptor (Table A1; H4 membrane binding assay)
Just the number please, in %, no unit attached.

Consider the compound CNC(=O)c1cc(-c2ccc3c(c2)CN(c2cc(N4CCN(C)CC4)nc(N)n2)C(C)C3)cn1C (single isomer, unassigned) [Example 87B] and give its measured inhibition at 1 µM.
69

Again, but for CC1Cc2ccc(-c3ccn(CCC#N)n3)cc2CN1c1cc(N2CCN(C)CC2)nc(N)n1 (single isomer, unassigned) [Example 83B]
61

Again, but for `CN1CCN(c2cc(N3CCc4ccc(-c5cnc(N6CCN(C(=O)OC(C)(C)C)CC6)nc5)cc4C3)nc(N)n2)CC1`
35

---

EXPERIMENTAL TARGET: histamine H4 receptor (Homo sapiens, UniProt Q9H3N8)
pIC50: −log10 of the molar value.
Entry flag: y if pIC50 reaches 7; n if it does not.

pIC50 >= 7 for `CN1CCN(c2cc(N3CCc4ccc(C(=O)N5CCCC5)cc4C3)nc(N)n2)CC1` ?
n

Again, but for CC1Cc2ccc(-c3ccnc(C(=O)N4CCC(N(C)C)C4)c3)cc2CN1c1cc(N2CCN(C)CC2)nc(N)n1 (single isomer, unassigned) [Example 67B]
y

Again, but for CC1Cc2ccc(-c3ccnc(C(=O)N4CCC(N(C)C)C4)c3)cc2CN1c1cc(N2CCN(C)CC2)nc(N)n1 (single isomer, unassigned) [Example 67A]
y

---

Provide the recorded inhibition at 1 µM for the entries that follow.
EXPERIMENTAL TARGET: histamine H4 receptor (Homo sapiens, UniProt Q9H3N8)
Construct: expressed in transfected cells; host or cells: HEK293SFM cells (membrane preparation)
PROTOCOL DESCRIPTION: Inhibition of histamine H4 receptor (Table A1; H4 membrane binding assay)
Just the number please, in %, no unit attached.

Consider the compound CC1Cc2ccc(-c3cnn(CC4(C#N)CC4)c3)cc2CN1c1cc(N2CCN(C)CC2)nc(N)n1 (single isomer, unassigned) [Example 97B] and give its measured inhibition at 1 µM.
72

Again, but for CCNC(=O)c1cccc(-c2ccc3c(c2)CN(c2cc(N4CCN(C)CC4)nc(N)n2)C(C)C3)n1 (single isomer, unassigned) [Example 158]
70

Again, but for CC(C)NC(=O)c1cc(-c2ccc3c(c2)CN(c2cc(N4CCN(C)CC4)nc(N)n2)C(C)C3)cn1C (single isomer, unassigned) [Example 90B]
72

---

pIC50 data for histamine H4 receptor (Homo sapiens, UniProt Q9H3N8) follow.
The quantity pIC50 is defined as the negative base-10 logarithm of the molar concentration.

Consider the molecule CN1CCN(c2cc(N3CCc4ccc(Oc5ccc(C#N)c(Cl)c5)cc4C3)nc(N)n2)CC1 [Example 22] and give its measured pIC50.
6.44

Again, but for CC1Cc2ccc(-c3ccnc(C(=O)N4CC[C@H](F)C4)c3)cc2CN1c1cc(N2CCN(C)CC2)nc(N)n1 (single isomer, unassigned) [Example 66A]
7.19

Again, but for CC1Cc2ccc(-c3ccc(C(=O)N4CCC4)nc3)cc2CN1c1cc(N2CCN(C)CC2)nc(N)n1 (single isomer, unassigned) [Example 53B]
6.75

---

IC50 data for histamine H4 receptor (Homo sapiens, UniProt Q9H3N8) follow.
Quick note: number first, unit second.

Consider the compound `CCOC(=O)N1CCN(c2ccc3c(c2)CN(c2cc(N4CCN(C)CC4)nc(N)n2)CC3)CC1` and give its measured IC50.
0.282 µM

Again, but for CC1Cc2ccc(-c3ccc(C(=O)N4CC(C#N)C4)nc3)cc2CN1c1cc(N2CCN(C)CC2)nc(N)n1 (single isomer, unassigned) [Example 54B]
0.048 µM

Again, but for CC1Cc2ccc(-c3ccc(C(=O)N4CCCC4)nc3)cc2CN1c1cc(N2CCN(C)CC2)nc(N)n1 (single isomer, unassigned) [Example 55A]
0.095 µM

Again, but for CC1Cc2ccc(-c3cnn(CC(=O)N(C)C)c3)cc2CN1c1cc(N2CCN(C)CC2)nc(N)n1 (stereo not drawn)
0.106 µM

Again, but for CC1Cc2ccc(-c3ccc(C(=O)N4CC(O)C4)cn3)cc2CN1c1cc(N2CCN(C)CC2)nc(N)n1 (single isomer, unassigned)
0.195 µM

Again, but for CC1Cc2ccc(-c3cc(C(=O)NC4CC4)n(C)c3)cc2CN1c1cc(N2CCN(C)CC2)nc(N)n1 (single isomer, unassigned) [Example 91A]
0.049 µM
